- Test system: S. mutans
- TEST_DETAILS: microbe, parasite or virus in culture
- Type: cell-based, Streptococcus mutans
- TEST_SETTINGS: Streptococcus mutans; Table 3; >300 = no inhibition up to 300 μM; NI = no inhibition up to 400 μM; read-out: Growth Inhibition MIC50
QUANTITY_KIND: MIC50 (µM)
Response body: numeric value in µM, unit text excluded.

1. Oc1cc(O)c2cc(O)c(-c3cc(O)c(O)c(O)c3)[o+]c2c1 [PBF] | 262
2. O=C(/C=C/c1ccc(O)cc1O)c1cccc(O)c1 [RZ-1-86] | 469
3. O=C(/C=C/c1ccc(O)cc1O)c1ccc(O)cc1 [SN-II-49C] | 782

Quick note, MIC50 for COc1ccc(/C=C2\Oc3ccccc3C2=O)cc1OC [LC-I-197] landed at 37.1

Quick note, MIC50 for O=C(/C=C/c1ccc(O)c(O)c1)c1ccc(O)c(O)c1O [Okanin (natural), Okanin] landed at 534

Quick note, MIC50 for Oc1ccc(/C=C/c2cc(O)cc(O)c2)cc1 [Resveratrol, reference compound] landed at 546

Quick note, MIC50 for Oc1cc(O)cc(/C=C/c2ccc(O)c(O)c2)c1 [Piceatannol] landed at 564

Quick note, MIC50 for O=c1c(O)c(-c2ccc(O)cc2O)oc2ccccc12 [SN-II-79] landed at 30

Quick note, MIC50 for O=C1/C(=C/c2ccc(O)c(O)c2)Oc2ccccc21 [SN-II-118] landed at 263

Quick note, MIC50 for COc1cc(OC)c(-c2oc3ccccc3c(=O)c2O)cc1OC [AP-I-240] landed at 15.3

Quick note, MIC50 for COc1ccc(/C=C/C(=O)c2ccc(OC)c(OC)c2O)c(OC)c1 [SN-II-24-B6] landed at 231

Quick note, MIC50 for COc1cc(O)ccc1/C=C1\Oc2ccccc2C1=O [SN-II-115] landed at 153

----------
- Tested on: S. mutans biofilm
- TEST_DETAILS: S. mutans biofilm formation and inhibition assay (96-well plates, crystal violet)
- Assay type: cell-based, Streptococcus mutans
- TEST_SETTINGS: Streptococcus mutans; Table 7, synthesized analogs of compound 9; read-out: Biofilm IC50
Mark each entry MET if its IC50 sits below 200 µM, and NOT MET for all others.

Answered cases to consult:
1) O=C(/C=C/c1ccc(O)cc1O)c1cccc(O)c1 | MET
2) O=C(/C=C\c1ccc(O)cc1O)c1cccc(O)c1 | MET
3) O=C(/C=C\c1ccc(O)cc1O)c1ccc(O)cc1 [Compound 21b] | MET
4) O=C(/C=C/c1cc(O)c(O)cc1O)c1ccc(O)cc1 [Compound 18d] | MET
5) O=C(/C=C/c1cc(O)c(O)cc1O)c1ccccc1O [Compound 18c] | NOT MET

Does the reported IC50 of the following molecule sit strictly below 200 µM? O=C(/C=C/c1ccc(O)cc1O)c1ccc(O)cc1 [Compound 18b]
MET

----------
- STUDY_SYSTEM: GtfC catalytic domain (Streptococcus mutans serotype c (strain ATCC 700610 / UA159))
- Sequence (P13470 295-1103 limits assumed): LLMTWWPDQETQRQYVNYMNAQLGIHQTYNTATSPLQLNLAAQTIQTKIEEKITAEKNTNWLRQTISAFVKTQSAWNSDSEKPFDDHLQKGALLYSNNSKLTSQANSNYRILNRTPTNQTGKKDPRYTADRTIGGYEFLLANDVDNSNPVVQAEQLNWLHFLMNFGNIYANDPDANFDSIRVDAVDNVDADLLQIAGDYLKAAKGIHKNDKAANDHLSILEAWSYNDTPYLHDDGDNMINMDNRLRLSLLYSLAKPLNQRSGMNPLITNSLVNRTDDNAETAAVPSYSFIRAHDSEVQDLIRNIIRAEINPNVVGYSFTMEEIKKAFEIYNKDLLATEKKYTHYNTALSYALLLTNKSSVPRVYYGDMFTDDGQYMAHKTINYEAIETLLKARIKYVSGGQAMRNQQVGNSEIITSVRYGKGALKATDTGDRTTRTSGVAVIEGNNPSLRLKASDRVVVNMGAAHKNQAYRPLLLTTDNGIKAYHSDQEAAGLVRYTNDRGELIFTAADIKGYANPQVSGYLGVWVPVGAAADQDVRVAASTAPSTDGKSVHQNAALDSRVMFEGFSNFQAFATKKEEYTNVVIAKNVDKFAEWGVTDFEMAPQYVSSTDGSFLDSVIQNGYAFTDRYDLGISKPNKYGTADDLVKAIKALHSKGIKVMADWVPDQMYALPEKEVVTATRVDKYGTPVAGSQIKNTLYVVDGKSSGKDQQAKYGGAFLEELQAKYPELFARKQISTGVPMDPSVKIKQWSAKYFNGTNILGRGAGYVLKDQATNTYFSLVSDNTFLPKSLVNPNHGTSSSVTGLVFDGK
- TEST_DETAILS: OctetRed96 binding kinetics, GtfC
- TEST_SETTINGS: stilbenes, 1:1 binding mode
QUANTITY_KIND: pKd
Units for pKd: none; it is -log10 of a concentration expressed in mol/L.

Quick note, pKd for Oc1ccc(/C=C/c2cc(O)cc(O)c2)cc1 [Resveratrol, reference compound] landed at 3.29

----------
The following compounds are shown together with reported log10 MIC50 values.
- Tested on: S. mutans
- TEST_DETAILS: microbe, parasite or virus in culture
- Type: cell-based, Streptococcus mutans
- TEST_SETTINGS: Streptococcus mutans; Table 4, stilbenes; average of at least 5 measurements; NI = no inhibition; read-out: Growth MIC50
A difference of one corresponds to tenfold MIC50; all values are log10 with MIC50 in µM.

Example cases with answers are listed next.
1. N=C(N)c1ccc(/C=C/c2ccc(C(=N)N)cc2O)cc1 | 2.25
2. COc1cc(/C=C/c2ccc(OC)c(O)c2)cc(OC)c1 | 2.14
3. COc1ccc(/C=C/c2cc(O)cc(O[C@@H]3O[C@H](CO)[C@@H](O)[C@H](O)[C@H]3O)c2)cc1O | 2.13

Quick note, log10 MIC50 for Oc1cc(O)cc(/C=C/c2ccc(O)c(O)c2)c1 landed at 2.75

Quick note, log10 MIC50 for Oc1ccc(/C=C/c2ccc(O)cc2)cc1 landed at 2.93

Quick note, log10 MIC50 for Oc1ccc(/C=C/c2cc(O)cc(O)c2)cc1 [Resveratrol, reference compound] landed at 2.74

Quick note, log10 MIC50 for O=C(/C=C/c1ccc(O)c(O)c1)O[C@@H]1C[C@](O)(C(=O)O)C[C@@H](O)[C@H]1O landed at 3.24

Quick note, log10 MIC50 for COc1cc(O)cc(/C=C/c2ccccc2)c1 landed at 2.74

----------
- Tested on: S. mutans Gtfs
- TEST_DETAILS: Gtf zymographic assay with SDS-PAGE
- Type: biochemical, Streptococcus mutans
- TEST_SETTINGS: 10 μM; S. mutans GTF zymogram assay; NI = no inhibition up to 10 μM
The following molecules are shown together with reported % Inhibition of GTFs at 10 μM values.
Response body: numeric value in %, unit text excluded.

Example cases with answers are listed next.
1) COC(=O)c1ccc(NC(=O)c2cc3cc([N+](=O)[O-])ccc3s2)cc1 | 54.8
2) NC(=O)c1ccccc1NC(=O)c1cnc2ccccc2c1 | 36.6
3) NC(=O)c1ccccc1NC(=O)c1cc2cc([N+](=O)[O-])ccc2s1 | 30.3

Quick note, % Inhibition of GTFs at 10 μM for NC(=O)c1ccccc1NC(=O)c1cc2cc(N)ccc2s1 landed at 42.2

Quick note, % Inhibition of GTFs at 10 μM for O=C(Nc1ccccc1C(=O)O)c1cc2cc([N+](=O)[O-])ccc2s1 landed at 30.1

----------
- Test system: S. mutans biofilm
- TEST_DETAILS: S. mutans biofilm formation and inhibition assay (96-well plates, crystal violet)
- Type: cell-based, Streptococcus mutans
- TEST_SETTINGS: Streptococcus mutans, Table 2; read-out: Biofilm Inhibition IC50
Mark each entry Condition met if its IC50 sits below 50 µM, and Condition not met for all others.

Answered cases to consult:
1) COC(=O)c1cccc(NC(=O)c2cc3ccccc3s2)c1 | Condition not met
2) NCc1ccccc1NC(=O)c1cc2cc([N+](=O)[O-])ccc2[nH]1 | Condition not met
3) COC(=O)c1cccc(NC(=O)c2cnc3ccccc3c2)c1 | Condition not met
4) COC(=O)c1ccccc1NC(=O)c1ccc2ccccc2c1 | Condition not met

Does the reported IC50 of the following molecule sit strictly below 50 µM? COC(=O)c1cccc(NC(=O)c2cc3cc([N+](=O)[O-])ccc3s2)c1
Condition not met

Does the reported IC50 of the following molecule sit strictly below 50 µM? NC(=O)c1cc(NC(=O)c2cc3cc([N+](=O)[O-])ccc3s2)cc(C(N)=O)c1
Condition met

Does the reported IC50 of the following molecule sit strictly below 50 µM? COC(=O)c1cccc(NC(=O)c2cc3cc([N+](=O)[O-])ccc3[nH]2)c1
Condition met

----------
The following compounds are shown together with reported melting point values.

Example cases with answers are listed next.
1) O=C(/C=C\c1ccc(O)cc1O)c1ccc(O)cc1 [Compound 21b] | 185 to 187 °C
2) O=C(/C=C/c1ccc(O)cc1O)c1cccc(O)c1 [Compound 9a] | 73 to 75 °C
3) O=C(/C=C/c1ccc(O)cc1O)c1ccc(O)cc1 [Compound 18b] | 185 to 188 °C

Let us move to another entry and its melting point.
Quick note, melting point for O=C(/C=C\c1ccc(O)cc1O)c1cccc(O)c1 [Compound 9b] landed at 164 to 167 °C

----------
- Test system: S. mutans
- TEST_DETAILS: microbe, parasite or virus in culture
- Assay type: cell-based, Streptococcus mutans
- TEST_SETTINGS: Table 8, stilbenes; average of at least 5 measurements; NI = no inhibition
QUANTITY_KIND: Growth MIC50 (µM)
Response body: numeric value in µM, unit text excluded.

1. COc1cc(/C=C/c2ccc(OC)c(O)c2)cc(OC)c1 | 137

Quick note, Growth MIC50 for N=C(N)c1ccc(/C=C/c2ccc(C(=N)N)cc2O)cc1 landed at 179

Quick note, Growth MIC50 for COc1ccc(/C=C/c2cc(O)cc(O[C@@H]3O[C@H](CO)[C@@H](O)[C@H](O)[C@H]3O)c2)cc1O landed at 134

----------
- Tested on: S. mutans biofilm
- TEST_DETAILS: S. mutans biofilm formation and inhibition assay (96-well plates, crystal violet)
- Type: cell-based, Streptococcus mutans
- TEST_SETTINGS: Streptococcus mutans, Table 8, stilbenes; NI = no inhibition; read-out: Biofilm IC50
The following compounds are shown together with reported pIC50 values.
Units for pIC50: none; it is -log10 of a concentration expressed in mol/L.

1) COc1cc(/C=C/c2ccc(OC)c(O)c2)cc(OC)c1 [Entry 9] | 3.91
2) N=C(N)c1ccc(/C=C/c2ccc(C(=N)N)cc2O)cc1 [Entry 5] | 3.98
3) O=C(/C=C/c1ccc(O)c(O)c1)O[C@@H]1C[C@](O)(C(=O)O)C[C@@H](O)[C@H]1O [Entry 10] | 3.29
4) Oc1ccc(/C=C/c2ccc(O)cc2)cc1 [Entry 4] | 3.46
5) Oc1cc(O)cc(/C=C/c2ccc(O)c(O)c2)c1 [Piceatannol] | 4.28
6) C[n+]1ccc(/C=C/c2ccc(O)c(O)c2)c2ccccc21 [Entry 11] | 3.98
7) COc1cc(O)cc(/C=C/c2ccccc2)c1 [Entry 6] | 3.32

Let us move to another entry and its pIC50.
Quick note, pIC50 for COc1ccc(/C=C/c2cc(O)cc(O[C@@H]3O[C@H](CO)[C@@H](O)[C@H](O)[C@H]3O)c2)cc1O [Entry 12] landed at 3.97

Source of measurements: patent US11866416B2
